Could you please report measured minimal effective concentration for the items listed next?
Tested on: Rhizomucor pusillus 46342
Test: In vitro antifungal assay (Example IX), microdilution broth, MEC
Assay type: cell-based
Details: minimum effective concentration (shortening of hyphae), 35° C., 40-48 h, RPMI1640

Nc1ncccc1-c1cc(Cc2ccc(COc3ccccc3F)cc2)no1 = 0.1 to 1 µg/mL

Could you tell me minimal effective concentration for each of these compounds? They are listed below.
1. Nc1ncccc1-c1cc(Cc2ccc(OCc3cccc(F)c3)nc2)no1
2. Nc1ncccc1-c1cc(Cc2ccc(Oc3cccc(F)n3)cc2)no1
3. Nc1ncccc1-c1cc(Cc2ccc(COc3ccc(Cl)c4ccccc34)cc2)no1
4. C=Cc1ccc(Cc2cc(-c3cccnc3N)on2)cc1
5. CCn1cc(Cc2ccc(Cc3cc(-c4cccnc4N)on3)cc2)cn1
6. Nc1ncccc1-c1cc(Cc2ccc(OCc3ccc(F)cn3)nc2)no1

Reply:
1: 0.1 to 1 µg/mL; 2: 0.1 to 1 µg/mL; 3: > 1 µg/mL; 4: > 1 µg/mL; 5: > 1 µg/mL; 6: 0.1 to 1 µg/mL

Could you tell me minimal effective concentration for each of these compounds? They are listed below.
1. Nc1ncccc1-c1cc(Cc2ccc(OCCCc3ccc(OCc4ccccc4)cc3)nc2)no1
2. c1ccc(Oc2ccc(Cn3cc(-c4cccnc4)cn3)cn2)cc1

Reply:
> 1 µg/mL
> 1 µg/mL

====

Test system: Rhizomucor pusillus 46342
Assay: In vitro antifungal assay (Example IX), microdilution broth, MEC
Type: cell-based
Settings: minimum effective concentration (shortening of hyphae), 35° C., 40-48 h, RPMI1640
Could you please report measured minimal effective concentration for the items listed next?

These recorded examples may help you get a feel for the data.
c1ccc(COc2ccc(Cn3cc(-c4cccnc4)cn3)cn2)cc1 = > 1 µg/mL
Nc1ncccc1-c1cc(Cc2ccc(OCc3ccccn3)cc2)no1 = 0.1 to 1 µg/mL
COc1c(F)cc(F)cc1NCc1ccc(Cc2cc(-c3cccnc3N)on2)cc1 = 0.1 to 1 µg/mL
Nc1ncccc1-c1cc(Cc2ccc(OCc3cccc(Cl)n3)nc2)no1 = > 1 µg/mL
Nc1ncccc1-c1cc(Cc2ccc(OCCn3cncn3)nc2)no1 = > 1 µg/mL

Could you tell me minimal effective concentration for each of these compounds? They are listed below.
1. Nc1ncccc1-c1cc(Cc2cnc(Nc3c(F)cccc3F)c(F)c2)no1
2. Nc1ncccc1-c1cc(Cc2ccc(OCC3COC3)nc2)no1

Reply:
1: > 1 µg/mL; 2: > 1 µg/mL

Could you tell me minimal effective concentration for each of these compounds? They are listed below.
1. Nc1ncccc1-c1cc(Cc2ccc(OCc3ccncc3F)nc2)no1
2. Nc1ncccc1-c1cc(Cc2ccc(OCc3cc(Cl)ccn3)nc2)no1
3. Nc1ncccc1-c1cc(Cc2ccc(Cc3ccoc3)cc2)no1
4. Nc1ncccc1-c1cc(Cc2ccc(N3CCCC3c3ccccc3)nc2)no1 (stereo not shown)
5. Cc1csc(COc2ccc(Cc3cc(-c4cccnc4N)on3)cn2)n1
6. Nc1ncccc1-c1cc(Cc2ccc(OCc3ncccn3)cc2)no1
7. Nc1ncccc1-c1cc(Cc2ccc(OCc3ccnc(Cl)c3F)nc2)no1

Reply:
["> 1 µg/mL", "0.1 to 1 µg/mL", "0.1 to 1 µg/mL", "> 1 µg/mL", "> 1 µg/mL", "> 1 µg/mL", "> 1 µg/mL"]

Could you tell me minimal effective concentration for each of these compounds? They are listed below.
1. Nc1ncccc1-c1cc(Cc2ccc(Nc3cccc(F)c3)nc2)no1
2. COc1ccc(OCc2ccc(Cc3cc(-c4cccnc4N)on3)cc2)cc1OC
3. CC(Oc1ccc(Cc2cc(-c3cccnc3N)on2)cn1)c1ccccn1 (stereo not shown)
4. Nc1ncccc1-c1cc(Cc2ccc(OCc3cccc(F)c3)cc2)no1
5. Cc1nc(COc2ccc(Cc3cc(-c4cccnc4N)on3)cn2)cs1

Reply:
["> 1 µg/mL", "> 1 µg/mL", "> 1 µg/mL", "0.1 to 1 µg/mL", "> 1 µg/mL"]
